target: T1, human DLL4 stably expressed on HEK 293 cells (human, UniProt Q9NR61 27-685); experiment: flow cytometry on HEK293 cells stably expressing human DLL4, 10 ug antibody
T1 construct: whole, on cells; also called human DLL4 antigen
T1 sequence (Q9NR61 27-685): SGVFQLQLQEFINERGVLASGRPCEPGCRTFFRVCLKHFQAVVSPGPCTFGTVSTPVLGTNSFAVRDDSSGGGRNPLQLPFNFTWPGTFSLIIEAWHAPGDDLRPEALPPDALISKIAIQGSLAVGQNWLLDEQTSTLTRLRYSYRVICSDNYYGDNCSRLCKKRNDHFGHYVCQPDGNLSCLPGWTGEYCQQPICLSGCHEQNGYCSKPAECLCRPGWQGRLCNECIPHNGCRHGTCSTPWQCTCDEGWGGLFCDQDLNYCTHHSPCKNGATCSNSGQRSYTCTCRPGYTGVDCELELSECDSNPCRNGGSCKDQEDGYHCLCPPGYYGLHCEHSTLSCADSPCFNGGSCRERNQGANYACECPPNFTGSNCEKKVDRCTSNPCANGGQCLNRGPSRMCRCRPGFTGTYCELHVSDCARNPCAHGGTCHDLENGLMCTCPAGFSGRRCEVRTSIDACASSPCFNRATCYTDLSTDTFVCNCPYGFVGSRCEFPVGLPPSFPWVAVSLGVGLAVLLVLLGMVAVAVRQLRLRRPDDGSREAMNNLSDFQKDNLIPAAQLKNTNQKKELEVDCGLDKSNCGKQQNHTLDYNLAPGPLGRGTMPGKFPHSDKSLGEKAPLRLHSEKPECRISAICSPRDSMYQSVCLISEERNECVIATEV
result_type: degree of binding to DLL4 antigen compared to the control group (%)
Numbers only, in %.

MLCK-1 (antibody, V domains shown, Human monoclonal antibody from a phage scFv library; Only the variable regions are tied to the clone; In flow cytometry it was detected with an anti-human IgG Fc-specific antibody, so it carries a human Fc; also called anti-DLL4 antibody) VH: EVQLLESGGGLVQPGGSLRLSCAASGFTFSDYAMSWVRQAPGKGLEWVSWIYSDDGNKYYADSVKGRFTISRDNSKNTLYLQMNSLRAEDTAVYYCARADPPFDYWGQGTLVTVSS VL: QSVLTQPPSASGTPGQRVTISCTGSSSNIGSNNVSWYQQLPGTAPKLLIYSDNNRPSGVPDRFSGSKSGTSASLAISGLRSEDEADYYCATWDSSLNGYVFGGGTKLTVL :: 47.8

Value sought for every listed binder: degree of binding to DLL4 antigen compared to the control group.
1. MLCK-3 (antibody, V domains shown, Human monoclonal antibody from a phage scFv library; Only the variable regions are tied to the clone; In flow cytometry it was detected with an anti-human IgG Fc-specific antibody, so it carries a human Fc; also called anti-DLL4 antibody) VH: EVQLLESGGGLVQPGGSLRLSCAASGFTFSDYAMSWVRQAPGKGLEWVSWIYYDSGSKYYADSVKGRFTISRDNSKNTLYLQMNSLRAEDTAVYYCARADLPFDYWGQGTLVTVSS VL: QSVLTQPPSASGTPGQRVTISCSGSSSNIGNNAVTWYQQLPGTAPKLLIYSDNHRPSGVPDRFSGSKSGTSASLAISGLRSEDEADYYCGTWDASLSGYVFGGGTKLTVL
2. MLCK-2 (antibody, V domains shown, Human monoclonal antibody from a phage scFv library; Only the variable regions are tied to the clone; In flow cytometry it was detected with an anti-human IgG Fc-specific antibody, so it carries a human Fc; also called MLCK-2 mAb; anti-DLL4 antibody) VH: EVQLLESGGGLVQPGGSLRLSCAASGFTFSDYAMSWVRQAPGKGLEWVSWIYSGSGNKYYADSVKGRFTISRDNSKNTLYLQMNSLRAEDTAVYYCARADWPFDYWGQGTLVTVSS VL: QSVLTQPPSASGTPGQRVTISCTGSSSNIGSNDVTWYQQLPGTAPKLLIYADSKRPSGVPDRFSGSKSGTSASLAISGLRSEDEADYYCGTWDYSLSAYVFGGGTKLTVL
3. MLCK-4 (antibody, V domains shown, Human monoclonal antibody from a phage scFv library; Only the variable regions are tied to the clone; In flow cytometry it was detected with an anti-human IgG Fc-specific antibody, so it carries a human Fc; also called anti-DLL4 antibody) VH: EVQLLESGGGLVQPGGSLRLSCAASGFTFSNYAMSWVRQAPGKGLEWVSWIYHGGGDTYYADSVKGRFTISRDNSKNTLYLQMNSLRAEDTAVYYCARGPNYTFGKPFDYWGQGTLVTVSS VL: QSVLTQPPSASGTPGQRVTISCRGSPSNIGNNTVYWYQQLPGTAPKLLIYSDSQRPSGVPDRFSGSKSGTSASLAISGLRSEDEADYYCGSWDYSLSAYVFGGGTKLTVL

Reply:
1: 52.9; 2: 59; 3: 52.5
